system: T1, rat IL-25 expressed with a C-terminal myc-myc-hexahistidine tag (rat)
T1 construct: also called Rat IL-25-MMH
T1 chain: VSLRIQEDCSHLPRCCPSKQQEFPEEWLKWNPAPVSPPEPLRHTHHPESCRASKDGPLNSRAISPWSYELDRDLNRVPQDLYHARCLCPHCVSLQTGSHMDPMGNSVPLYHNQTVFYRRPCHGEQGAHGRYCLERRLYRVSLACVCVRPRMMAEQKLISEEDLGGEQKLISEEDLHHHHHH
experimental_protocol: SPR Biacore, antibody captured, 37C
Recorded 100 nM Rat IL-25-MMH Bound (RU) by entry
Answer with a number only, understood to be in RU.

A selection of reference data follows.
>>> value_reported("H4H10871P (antibody, human IgG4, V domains shown, H4H prefix = human IgG4 Fc) VH: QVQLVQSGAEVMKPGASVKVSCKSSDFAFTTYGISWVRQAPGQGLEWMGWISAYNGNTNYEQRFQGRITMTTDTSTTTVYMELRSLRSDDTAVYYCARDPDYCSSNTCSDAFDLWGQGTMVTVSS VL: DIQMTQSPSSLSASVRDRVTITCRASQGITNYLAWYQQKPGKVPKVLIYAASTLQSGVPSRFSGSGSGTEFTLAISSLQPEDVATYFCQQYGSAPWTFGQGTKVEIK")
45
>>> value_reported("H4H10905P (antibody, human IgG4, V domains shown, H4H prefix = human IgG4 Fc) VH: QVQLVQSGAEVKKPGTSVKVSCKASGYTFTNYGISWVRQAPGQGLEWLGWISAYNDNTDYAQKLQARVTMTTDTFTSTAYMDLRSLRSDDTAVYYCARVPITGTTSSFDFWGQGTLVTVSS VL: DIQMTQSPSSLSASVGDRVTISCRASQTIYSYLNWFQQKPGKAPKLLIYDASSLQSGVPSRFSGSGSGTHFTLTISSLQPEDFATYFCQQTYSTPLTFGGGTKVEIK")
49

Could you now consider this next binder?
Could you share which 100 nM Rat IL-25-MMH Bound (RU) value was measured for H4H10897P (antibody, human IgG4, V domains shown, H4H prefix = human IgG4 Fc) VH: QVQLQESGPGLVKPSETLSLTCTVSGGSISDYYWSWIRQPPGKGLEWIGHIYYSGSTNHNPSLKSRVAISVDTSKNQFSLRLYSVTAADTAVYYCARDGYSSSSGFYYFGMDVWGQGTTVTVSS VL: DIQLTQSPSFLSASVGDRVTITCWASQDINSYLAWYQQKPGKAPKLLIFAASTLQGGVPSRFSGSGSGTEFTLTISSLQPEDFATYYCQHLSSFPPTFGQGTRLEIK ?
22
